These measurements were taken from ChEMBL document CHEMBL1143686.

# Tested on: HT-29
# METHOD SUMMARY: Growth inhibition of human HT29 cells after 48 hrs
# Format: functional
# DETAILS: HT-29, 48 h
MEASURED PROPERTY: GI50 (µM)
Please state the figure in µM; there is no need to write the unit.

COMPOUND: CC[C@]1(O)C[C@@H]2CN(CCc3c([nH]c4ccccc34)[C@@](C(=O)OC)(c3cc4c(cc3OC)N(C)[C@H]3[C@@](O)(C(=O)OC)[C@H](OC(C)=O)[C@]5(CC)C=CCN6CC[C@]43[C@@H]65)C2)C1 [VINBLASTINE]
GI50 (µM): 0.002
--
COMPOUND: Cc1cccc(C)c1NC(=O)NC(=O)CCl
GI50 (µM): 6.6
--
COMPOUND: Cc1cccc(NC(=O)NC(=O)CCl)c1C
GI50 (µM): 6
--
COMPOUND: O=C(NCCCl)Nc1ccc2c(c1)Cc1ccccc1-2
GI50 (µM): 2.3
--
COMPOUND: CC(C)(C)c1ccc(NC2=NCCO2)cc1
GI50 (µM): 1.5

Short answer for Ic1ccc(NC2=NCCO2)cc1 : GI50 was 1.3

Lab book: GI50 of Cc1cccc(NC(=O)NC(=O)CCl)c1 noted as 9

What the record says about Cc1cc(C)cc(NC(=O)NCCCl)c1 : GI50 is 8.5

Entry under test: Cc1ccc(C)c(NC(=O)NCCCl)c1 . Its GI50 was 67

For reference, reported GI50 for CC(=O)O[C@H]1C(=O)[C@@]2(C)[C@H]([C@H](OC(=O)c3ccccc3)[C@]3(O)C[C@H](OC(=O)[C@H](O)[C@@H](NC(=O)c4ccccc4)c4ccccc4)C(C)=C1C3(C)C)[C@]1(OC(C)=O)CO[C@@H]1C[C@@H]2O [PACLITAXEL] stands at 0.015

Summary for this compound, O=C(NCCCl)NC1c2ccccc2-c2ccccc21 : GI50 is 16
